Data origin, for the record: the supplement of paper PMC10126150

Tested on: ATP;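 further: ATP exposure 15 min at 22 °C before imaging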
ASSAY_EXPLANATION: switch fluorescence ratio, 500 uM ATP over buffer (Cy3 cluster intensity, sum of 5 cycles each) (fold (ratio)); higher = stronger signal-on switching upon ATP binding; sequences stand for … in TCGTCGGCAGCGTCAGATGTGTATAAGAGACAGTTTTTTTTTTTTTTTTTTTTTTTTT…TC
EXPERIMENTAL_CONTEXT: aptamer strand: ATP DNA aptamer (quencher-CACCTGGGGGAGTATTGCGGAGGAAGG + anchor), 100 nM annealed; ATP concentration: 500 uM
PROPERTY: switch fluorescence ratio
One number for each entry.

seq_string=CCAATGGCAG assayed_system=ATP readout_number=1.16
seq_string=TAAGATCGGC assayed_system=ATP readout_number=0.974
seq_string=TCATATGGTG assayed_system=ATP readout_number=1.03
seq_string=GGTTAAAGGA assayed_system=ATP readout_number=0.958
seq_string=GAGTGCCGGT assayed_system=ATP readout_number=1.02

Return reported switch fluorescence ratio values for all items listed beneath this line.
1. ACAAACGCTG
2. TATAGGATGG
3. ATGCTAACGT
4. GTTTAAAAGC
5. TGCGGTAATT
6. GGGGTCAAGC
7. CAGCTCTAAG
8. TAACTCTGAG

output:
1.28
0.98
0.982
0.984
1.14
1.01
1
0.979

Quick one: give me switch fluorescence ratio for each item below, same order please.
1. TGGGGGGGA
2. CGTTGTAGGA
3. GAAAAAAGGG
4. AACGAGAAGC
5. GCCTTAGGTG

output:
1. 1.03
2. 0.999
3. 1.11
4. 0.99
5. 1.4

Would you be so kind as to report switch fluorescence ratio for each listed record?
1. CGGAGAGAGG
2. GAAGCGGATG
3. TCGGGGGGAG
4. TAGCGCAATT
5. ATCGGGGTCC
6. CGCTATTGTG

output:
1. 1.01
2. 1.01
3. 1.01
4. 1.74
5. 1.02
6. 1.01

Hey, can you go through the list below and give me switch fluorescence ratio for every item?
1. TCTGTAGCTG
2. GTAAGGGATT
3. TTTCGAGGCT
4. GGTATGGAGC
5. GGGTGATATT
6. ATATGGATTA

output:
1: 1.3; 2: 1.03; 3: 0.976; 4: 0.971; 5: 0.996; 6: 1.01

---

Test system: ATP;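 further: ATP exposure 15 min at 22 °C before imaging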
ASSAY_EXPLANATION: switch fluorescence ratio, 500 uM ATP over buffer (Cy3 cluster intensity, sum of 5 cycles each) (fold (ratio)); higher = stronger signal-on switching upon ATP binding; sequences stand for … in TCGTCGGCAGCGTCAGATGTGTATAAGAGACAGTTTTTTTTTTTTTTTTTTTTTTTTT…TC
EXPERIMENTAL_CONTEXT: aptamer strand: ATP DNA aptamer (quencher-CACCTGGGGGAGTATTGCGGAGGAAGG + anchor), 100 nM annealed; ATP concentration: 500 uM
Assign switch fluorescence ratio to each entry below.
One number for each entry.

seq_string=ATCGCGACTA readout_number=1.05
seq_string=TGTTGACAGT readout_number=1.01
seq_string=ACGTGTAGGG readout_number=1
seq_string=TCGCTTGGGG readout_number=1
seq_string=ATCTTCAATT readout_number=1.01
seq_string=AAGAGTTCCT readout_number=1.03
seq_string=ATTGAATGGT readout_number=1.01
seq_string=TCTGGAAGGC readout_number=1.29

Fill in switch fluorescence ratio for each of the 2 sequences listed.
1. TGGTTACACG
2. GTGGCCCCGG

output:
1: 1.06; 2: 1.02

Look at each sequence and report its switch fluorescence ratio.
1. TACGCTGCAG
2. TTAAGGGCCA
3. CTATTCGTGG
4. TGTTGTATTG

output:
[1.05, 0.971, 0.973, 0.976]

Your task in this section: give switch fluorescence ratio for each listed record.
1. TTGTGAAAAA
2. AAATGACGTT
3. ACCCCGGGCA
4. TTGGTGGTCC
5. AGCGAGTTGG
6. TCCGTCCCCG

output:
0.972
0.969
1.08
0.999
0.958
1.35
